# system.under.test: Dopamine beta-hydroxylase (Bos taurus)
# Sequence (P15101 whole entry): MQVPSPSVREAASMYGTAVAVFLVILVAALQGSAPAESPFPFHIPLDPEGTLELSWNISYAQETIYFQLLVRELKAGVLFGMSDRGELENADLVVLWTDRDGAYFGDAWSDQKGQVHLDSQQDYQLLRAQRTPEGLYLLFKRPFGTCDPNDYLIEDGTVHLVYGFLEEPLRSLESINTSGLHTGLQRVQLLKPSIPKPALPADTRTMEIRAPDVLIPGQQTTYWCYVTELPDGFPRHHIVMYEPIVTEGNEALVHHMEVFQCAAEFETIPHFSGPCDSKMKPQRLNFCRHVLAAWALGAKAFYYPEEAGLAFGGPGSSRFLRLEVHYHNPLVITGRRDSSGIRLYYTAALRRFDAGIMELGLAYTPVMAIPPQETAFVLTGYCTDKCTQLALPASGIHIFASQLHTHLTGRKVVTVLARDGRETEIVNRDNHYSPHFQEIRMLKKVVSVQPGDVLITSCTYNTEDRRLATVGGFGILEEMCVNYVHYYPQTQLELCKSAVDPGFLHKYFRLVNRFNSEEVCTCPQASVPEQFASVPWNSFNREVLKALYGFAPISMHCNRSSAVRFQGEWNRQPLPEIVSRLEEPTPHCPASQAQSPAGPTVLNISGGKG
readout.type: Ki (µM)

compound	readout.type	units.symbol	reading
c1ccc2c(c1)CC1OC21 (centres undefined)	Ki	µM	1060
c1c2c(cc3c1OCO3)C1OC1C2 (centres undefined)	Ki	µM	1010
Oc1ccc(CC2CC2)cc1	Ki	µM	12000
COc1ccc2c(c1)C1NC1C2 (centres undefined)	Ki	µM	400

====

# system.under.test: Dopamine beta-hydroxylase (Bos taurus) (UniProt P15101)
# Sequence (whole entry): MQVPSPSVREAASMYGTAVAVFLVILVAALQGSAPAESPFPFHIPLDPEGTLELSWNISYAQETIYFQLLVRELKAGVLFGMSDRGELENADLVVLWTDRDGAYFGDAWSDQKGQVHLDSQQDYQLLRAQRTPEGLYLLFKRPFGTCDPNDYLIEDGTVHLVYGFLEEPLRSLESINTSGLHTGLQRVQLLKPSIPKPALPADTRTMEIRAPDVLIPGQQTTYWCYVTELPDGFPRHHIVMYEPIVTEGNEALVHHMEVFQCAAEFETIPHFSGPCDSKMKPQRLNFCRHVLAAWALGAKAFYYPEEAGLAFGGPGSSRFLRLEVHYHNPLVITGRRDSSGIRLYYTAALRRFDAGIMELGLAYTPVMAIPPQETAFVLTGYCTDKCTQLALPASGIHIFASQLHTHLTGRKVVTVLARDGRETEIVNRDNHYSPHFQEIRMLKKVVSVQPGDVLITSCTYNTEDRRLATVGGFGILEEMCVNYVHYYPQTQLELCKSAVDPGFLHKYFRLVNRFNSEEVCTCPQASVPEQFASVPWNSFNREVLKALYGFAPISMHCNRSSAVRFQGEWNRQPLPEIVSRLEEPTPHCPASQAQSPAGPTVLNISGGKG
# assay.summary: Kinetic constant for inactivation (k inact) of Dopamine beta-Hydroxylase (DBH) from bovine adrenal medulla
# Assay type: tissue-based
Recorded measurements of K inact, one per entry

molecule	system.under.test	K inact [min⁻¹]
c1c2c(cc3c1OCO3)C1CC1C2 (stereo not given)	Dopamine beta-hydroxylase (Bos taurus) (UniProt P15101)	0.06
COc1ccc2c(c1)C1CC1C2 (stereo not given)	Dopamine beta-hydroxylase (Bos taurus) (UniProt P15101)	0.11
COc1ccc2c(c1)C1NC1C2 (stereo not given)	Dopamine beta-hydroxylase (Bos taurus) (UniProt P15101)	0.03
c1ccc2c(c1)CC1CC21 (stereo not given)	Dopamine beta-hydroxylase (Bos taurus) (UniProt P15101)	0.2
COc1ccc(CC2CC2)cc1	Dopamine beta-hydroxylase (Bos taurus) (UniProt P15101)	0.018
c1c2c(cc3c1OCO3)C1OC1C2 (stereo not given)	Dopamine beta-hydroxylase (Bos taurus) (UniProt P15101)	0.06
Oc1cc2c(cc1O)C1CC1C2 (stereo not given)	Dopamine beta-hydroxylase (Bos taurus) (UniProt P15101)	0.129
c1ccc2c(c1)CC1OC21 (stereo not given)	Dopamine beta-hydroxylase (Bos taurus) (UniProt P15101)	0.08
COc1ccc2c(c1)C1OC1C2 (stereo not given)	Dopamine beta-hydroxylase (Bos taurus) (UniProt P15101)	0.07
Oc1ccc2c(c1)C1CC1C2 (stereo not given)	Dopamine beta-hydroxylase (Bos taurus) (UniProt P15101)	0.23

====

# assay.summary: Ratio of kinetic constant k inact to KI was determined

compound	units.symbol	Ratio
COc1ccc(CC2CC2)cc1	M⁻¹ min⁻¹	75
COc1ccc2c(c1)C1OC1C2 (stereo not drawn)	M⁻¹ min⁻¹	110
Oc1ccc(CC2CC2)cc1	M⁻¹ min⁻¹	150

====

# assay.summary: Ratio of kinetic constant k inact to KI was determined

compound	Ratio [M⁻¹ min⁻¹]
c1ccc2c(c1)CC1OC21 (stereo not drawn)	70
Oc1cc2c(cc1O)C1CC1C2 (stereo not drawn)	1180
Oc1ccc2c(c1)C1CC1C2 (stereo not drawn)	1530
c1ccc2c(c1)CC1CC21 (stereo not drawn)	70
COc1ccc2c(c1)C1CC1C2 (stereo not drawn)	100
COc1ccc2c(c1)C1NC1C2 (stereo not drawn)	70
c1c2c(cc3c1OCO3)C1OC1C2 (stereo not drawn)	60
c1c2c(cc3c1OCO3)C1CC1C2 (stereo not drawn)	370
